- protocol.notes: viability loss of HPDE-C7K cells – cell-based, fluorescence, HTS, primary screen (AID 431)
- setup.conditions: HPDE-C7K KRASV12 cells, Alamar Blue viability, 48 h; at 10 µM
The whole screen tested about 63,000 compounds, of which about 1,100 (1.7%) were called active.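 The calls were made as follows: active = compounds whose percent cytotoxicity in the single-dose primary screen, scaled between solvent and toxic-drug controls, exceeds 50; inactive = the rest.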 The list comes from a sample in which actives are over-represented; it also holds close analogues and randomly drawn compounds. Potency and affinity values are given separately.
Could you please pick one outcome from this set? T for active, F for inactive

Answered cases to consult:
INSERT INTO assay_data (compound, assigned_category) VALUES
  ('CCN(CC)c1ccc(NC(=O)c2ccccc2F)cc1', 'T'),
  ('O=C(c1c[nH]c2ccccc12)C(O)C(c1ccccc1)N1CCOCC1 (stereo unspecified)', 'F');

Task item: Please let me know the test result on file for Cc1csc(NC(=O)c2sc3nc(-c4cccs4)ccc3c2N)n1 .
Reply: T

Task item: What classification did C=CCN(CC=C)S(=O)(=O)c1ccc2nsnc2c1 end up with in this test?
Reply: F

Task item: Would you mind telling me which call this test gave CCOC(=O)N1CCN(C(=O)CSc2nnc(-c3cccs3)o2)CC1 ?
Reply: F

Task item: Outcome? O=C(CN1CCCC1)N1c2ccccc2Sc2ccccc21
Reply: F

Task item: How did this test come out for O=C(Nc1cccnc1)C1CCCN(S(=O)(=O)c2cccc3nsnc23)C1 (stereo unspecified) ?
Reply: F

Task item: Fill in: this test's call for CCN(CC)c1ccc(C(=O)Nc2cccc(F)c2)cc1 is ___
Reply: T

Task item: In this assay, the call recorded for Cc1cccc2cc(C(c3nnnn3CC3CCCO3)N3CCc4ccccc4C3)c(=O)[nH]c12 (stereo unspecified) was what?
Reply: F

Task item: Each compound tested received a call. Report the one for CCCS(=O)(=O)N1CCCC(C(=O)NCCc2ccc(Cl)cc2)C1 (stereo unspecified) .
Reply: F

Task item: // param item: O=C(CSc1nnc(-c2ccc(O)cc2)n1Cc1ccco1)c1cccs1 ; yields the recorded call
Reply: F

Task item: I would be grateful if you could indicate the recorded call for CCOc1ccc(NC(=O)c2cccc(-n3cnnn3)c2)cc1 .
Reply: F

Task item: Tell me the recorded outcome of this test for CC1(N2CCOCC2)CC2(O)C(=[N+]1[O-])CCc1nonc12 (stereo unspecified) .
Reply: F

Task item: Lab log entry: c1ccc(CNc2ncnc3c2cnn3-c2ccccc2)cc1 — outcome as called in the assay?
Reply: F

Task item: Given O=C(CSCc1ccco1)c1cccs1 , state the outcome it received in this test.
Reply: F

Task item: Given CCOc1cccc(C(=O)Nc2ccc(N(CC)CC)cc2)c1 , state the outcome it received in this test.
Reply: T

Task item: For this compound, state the assay outcome: COC(=O)c1sccc1NC(=O)c1ccc(Cl)s1
Reply: F

Task item: // outcome(item) with item = CCNC(=O)CCC(=O)Nc1cc(Cl)ccc1C
Reply: F

Task item: // outcome(item) with item = CC(C)CCn1c(SCC(N)=O)nc2c1c(=O)n(C)c(=O)n2C
Reply: F

Task item: Outcome? CCN(CC)c1ccc(NC(=O)c2ccco2)c(C)c1
Reply: F

Task item: Test call for this compound, please: CCN(CC)c1ccc(NC(=O)c2cc(OC)cc(OC)c2)c(C)c1
Reply: T

// provenance: PubChem BioAssay AID431
